Target: Cyclooxygenase (Bos taurus) (UniProt O62664+O62698)
Assay: Ability to inhibit Prostaglandin G/H synthase by using the bovine seminal vesicle enzyme assay on BSV cell line at a concentration of 75 uM
Format: tissue-based

Molecule Smiles: COc1c(Cc2ccccc2)ccc2ccccc12
Target Or Test System: Cyclooxygenase (Bos taurus) (UniProt O62664+O62698)
Unit Descriptor: %
inhibition: 0

Molecule Smiles: O=C(O)c1c(Cc2ccccc2)ccc2ccccc12
Target Or Test System: Cyclooxygenase (Bos taurus) (UniProt O62664+O62698)
Unit Descriptor: %
inhibition: 15

Molecule Smiles: OCCOc1c(Cc2ccccc2)ccc2ccccc12
Target Or Test System: Cyclooxygenase (Bos taurus) (UniProt O62664+O62698)
Unit Descriptor: %
inhibition: 28

Molecule Smiles: CCOC(=O)CCC/C(=N\O)c1ccc2ccccc2c1O
Target Or Test System: Cyclooxygenase (Bos taurus) (UniProt O62664+O62698)
Unit Descriptor: %
inhibition: 27

Molecule Smiles: Oc1ccccc1Cc1ccccc1
Target Or Test System: Cyclooxygenase (Bos taurus) (UniProt O62664+O62698)
Unit Descriptor: %
inhibition: 22

Molecule Smiles: COc1c(OC)c(OC(C)=O)c2cc(Cl)ccc2c1OC(C)=O
Target Or Test System: Cyclooxygenase (Bos taurus) (UniProt O62664+O62698)
Unit Descriptor: %
inhibition: 0

Molecule Smiles: CCOC(=O)CCCC(=O)c1ccc2ccccc2c1O
Target Or Test System: Cyclooxygenase (Bos taurus) (UniProt O62664+O62698)
Unit Descriptor: %
inhibition: 12

Molecule Smiles: CCOC(=O)c1ccc2ccccc2c1O
Target Or Test System: Cyclooxygenase (Bos taurus) (UniProt O62664+O62698)
Unit Descriptor: %
inhibition: 0

Molecule Smiles: O=C1CCN(c2ccccc2)N1
Target Or Test System: Cyclooxygenase (Bos taurus) (UniProt O62664+O62698)
Unit Descriptor: %
inhibition: 31

Molecule Smiles: O=C1C=C(Cc2ccccc2)C(=O)c2ccccc21
Target Or Test System: Cyclooxygenase (Bos taurus) (UniProt O62664+O62698)
Unit Descriptor: %
inhibition: 16

Molecule Smiles: O=C(c1ccccc1)c1ccc2ccccc2c1O
Target Or Test System: Cyclooxygenase (Bos taurus) (UniProt O62664+O62698)
Unit Descriptor: %
inhibition: 26
